All values here come from patent US5354747A.

Form field: ED50 (one value per entry).
- System: Charles River male albino mice
- Test Summary: Writhing Assay (PBQ-induced writhing, analgesic activity)
- Type: in vivo
- Run Parameters: Mus musculus, po; Intragastric; PBQ writhing, mice; maximum likelihood function; read-out: calculated ED50 value (dose which produced analgesia in 50% of the mice)
- Text: The Writhing Assay is one of the most widely-used experimental procedures for measuring the analgesic activity of different narcotic and nonnarcotic analgesic agents, and involves the continuous, chemically-induced pain of visceral origin to an animal, such as a mouse or rat. [Gyires et al., Arch. int. […] Five minutes later, each mouse was individually placed into a glass beaker for observation, and the number of writhes occurring during the following ten-minute period was counted. […]
Structures can show the parent of a compound that is named as a salt.
Unit mg/kg implied. Number only.

Before answering, review these 4 worked examples.
CCCN1CCCN(C(=O)N2Cc3ccccc3Oc3ccc(Cl)cc32)CC1 [Example 24, monohydrochloride] :: 14.7
Cl.O=C(N1CCN(Cc2ccccc2)CC1)N1Cc2ccccc2Oc2ccc(Cl)cc21 :: 6.8
CCCN1CCN(C(=O)N2Cc3ccccc3Oc3ccc(Cl)cc32)CC1.Cl :: 5.1
CCCCN1CCN(C(=O)N2Cc3ccccc3Oc3ccc(Cl)cc32)CC1.Cl :: 9.7

Req: Request body: readout ED50, system Charles River male albino mice, query CCCCCCCCCCN1CCN(C(=O)N2Cc3ccccc3Oc3ccc(Cl)cc32)CC1.Cl . Return the value.
Resp: 6.4
